For each record, write down the corresponding melting point.

The recorded melting point for entry N#Cc1ccc2ccc(Br)cc2c1 equals 126 to 128 °C

The recorded melting point for entry CC(=N)N(C)C1CCCCC1 equals 108 to 110 °C

The recorded melting point for entry CCn1ncc(C(=O)c2ccc(S(C)(=O)=O)c(C3=NOCC3)c2Cl)c1OCc1ccccc1 equals 70 to 75 °C

The recorded melting point for entry Cc1nn(-c2ccccn2)cc1COc1ccc(COc2ncccc2C#N)cc1 equals 108 to 109 °C

The recorded melting point for entry O=C(O)CNC(=O)Cc1ccccc1S equals 91 to 93 °C

The recorded melting point for entry COC(=O)CC(=O)NCc1cc(Br)cc2[nH]c(=O)c(=O)[nH]c12 equals > 300 °C

The recorded melting point for entry C[C@@H](C(N)=O)c1ccc(NS(=O)(=O)c2ccc(Cl)cc2)cc1 equals 150 to 153 °C

The recorded melting point for entry CC(C)[C@H](CCC(=O)OCc1ccccc1)NC(=O)OC(C)(C)C equals 94 to 96 °C

The recorded melting point for entry CC(C)(C)OC(=O)C(Cc1c[nH]cn1)N(C(=O)OC(C)(C)C)C(=O)OC(C)(C)C (stereo unspecified) equals 98 °C

The recorded melting point for entry FC1(F)N=c2cc3c(cc2=N1)OC(Br)O3 equals 160 to 164 °C

The recorded melting point for entry CCN(CC)C(=O)c1cc(OC)cc(Oc2cccc(C(F)(F)F)c2)n1 equals 78 to 89 °C

The recorded melting point for entry O=c1c2c(nc3c(OCc4ccccc4)cccn13)CCC2 equals 150 to 152 °C

The recorded melting point for entry CCOCCCNC(=O)Nc1ccccc1CCc1cc(C(C)(C)C)c(O)c(C(C)(C)C)c1 equals 136 to 137 °C

The recorded melting point for entry O=C1CC2C(OCc3ccc(Br)cc3)CC(O1)C2N1CCCCC1 (single isomer, unassigned; (-)) equals 85 to 88 °C

The recorded melting point for entry CNC(=S)n1nc(-c2ccc(Cl)nc2)nc1N equals 208 to 211 °C

The recorded melting point for entry O=Cc1c(OCc2ccccc2)cccc1C1OCCCO1 equals 85 to 87 °C

The recorded melting point for entry O=c1[nH]cc(C=CBr)c(=O)[nH]1 equals > 320 °C

The recorded melting point for entry CC(CNC(=O)Cc1ccccc1)Oc1ccccc1 (stereo unspecified) equals 94 to 96 °C

The recorded melting point for entry CC(=O)OC[C@H]1[C@H](O)[C@@H](O)[C@@H](O)[C@@H]2NC(=O)c3cc4c(cc3[C@@H]12)OCO4 equals > 200 °C

The recorded melting point for entry Cc1cc(-c2[nH]c3ccc(C#N)cc3c2C)cc(C)c1O equals 185 to 186 °C

The recorded melting point for entry CC(C)(C)C(=O)Nc1ccccc1C(c1ccc(O)cc1)c1ccc(O)cc1 equals 259 to 262 °C

The recorded melting point for entry CC1(C)OC(CCN)CC(CC(=O)O)O1 (stereo unspecified) equals 165 °C

The recorded melting point for entry CNC(=O)c1ccccc1Nc1nc(Nc2cccc3c2C(=O)N(C)CCN3C)ncc1Cl equals 204 °C

The recorded melting point for entry CC#Cc1ccc(NC(=O)c2ccccc2NCc2ccncc2)cc1C(F)(F)F equals 165 to 166 °C

The recorded melting point for entry Cc1nc(N2CCC(NCCC3CC3)C2=O)sc1C(=O)NCc1ccc(F)cc1 (stereo unspecified) equals 151 to 152 °C

The recorded melting point for entry CCOC(=O)c1c(CS(=O)(=O)c2nccn2C)nc2cc(OC)c(OC)cc2c1-c1ccc(OC)c(OC)c1 equals 183 to 184 °C

The recorded melting point for entry CC(C)n1c(=O)[nH]c(C(F)(F)F)c(Br)c1=O equals 149 to 150 °C

The recorded melting point for entry COc1ccc(/C=C/c2ccncc2[N+](=O)[O-])cc1OC1CCCC1 equals 114 to 116 °C

The recorded melting point for entry CON(c1ccc([N+](=O)[O-])cc1F)S(=O)(=O)c1ccc(Cl)c(C(F)(F)F)c1 equals 104 to 106 °C

The recorded melting point for entry OCCc1ccc(OCc2ccc3ccccc3n2)cc1 equals 145 °C

The recorded melting point for entry CCCc1c(OCCCCC(=O)c2ccc3cc(O)c(O)cc3c2)ccc(C(=O)O)c1O equals 213 to 214 °C

Source: a melting point compilation (Tetko et al.; mined from patent text by program, amines drawn as free bases though some values may be those of a salt)
